I'd be grateful if you could share measured protein stability index for these entries.
B1: EFHC1 (parent)
chain: NIYYYLEDDSMSVIEPVVENSGIL

- Variants of: B1
- assay summary: protein stability index of a GFP-peptide fusion (GPS, HEK-293T) (PSI 1-6); higher = more stable;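 also: lentivirally expressed fusions sorted by FACS into six bins by GFP to DsRed ratio, PSI derived from sequencing read proportions per bin multiplied by bin number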
- study conditions: c terminus: a fixed tail appended

Completed entries (count: 5):
**Query** State the recorded protein stability index for this entry: Y5I
**Result** 1.92

**Query** State the recorded protein stability index for this entry: S12M
**Result** 1.8

**Query** State the recorded protein stability index for this entry: Y3D
**Result** 4.08

**Query** State the recorded protein stability index for this entry: E19T
**Result** 1.66

**Query** State the recorded protein stability index for this entry: D8F
**Result** 2.17

I have 4 variants here; please give me protein stability index for each one.
1. D8N
2. P16S
3. D9H
4. M11A

**Result**
[2.01, 1.83, 2.13, 2.75]

I have 6 variants here; please give me protein stability index for each one.
1. S21Q
2. I23V
3. S12C
4. Y5M
5. D9I
6. G22V

**Result**
1: 2.6; 2: 1.8; 3: 1.61; 4: 2.36; 5: 1.56; 6: 2.43

**Query** State the recorded protein stability index for this entry: S10V
**Result** 1.68
